# TGT: JAK2 (Homo sapiens (Human))
# Sequence (O60674 whole entry): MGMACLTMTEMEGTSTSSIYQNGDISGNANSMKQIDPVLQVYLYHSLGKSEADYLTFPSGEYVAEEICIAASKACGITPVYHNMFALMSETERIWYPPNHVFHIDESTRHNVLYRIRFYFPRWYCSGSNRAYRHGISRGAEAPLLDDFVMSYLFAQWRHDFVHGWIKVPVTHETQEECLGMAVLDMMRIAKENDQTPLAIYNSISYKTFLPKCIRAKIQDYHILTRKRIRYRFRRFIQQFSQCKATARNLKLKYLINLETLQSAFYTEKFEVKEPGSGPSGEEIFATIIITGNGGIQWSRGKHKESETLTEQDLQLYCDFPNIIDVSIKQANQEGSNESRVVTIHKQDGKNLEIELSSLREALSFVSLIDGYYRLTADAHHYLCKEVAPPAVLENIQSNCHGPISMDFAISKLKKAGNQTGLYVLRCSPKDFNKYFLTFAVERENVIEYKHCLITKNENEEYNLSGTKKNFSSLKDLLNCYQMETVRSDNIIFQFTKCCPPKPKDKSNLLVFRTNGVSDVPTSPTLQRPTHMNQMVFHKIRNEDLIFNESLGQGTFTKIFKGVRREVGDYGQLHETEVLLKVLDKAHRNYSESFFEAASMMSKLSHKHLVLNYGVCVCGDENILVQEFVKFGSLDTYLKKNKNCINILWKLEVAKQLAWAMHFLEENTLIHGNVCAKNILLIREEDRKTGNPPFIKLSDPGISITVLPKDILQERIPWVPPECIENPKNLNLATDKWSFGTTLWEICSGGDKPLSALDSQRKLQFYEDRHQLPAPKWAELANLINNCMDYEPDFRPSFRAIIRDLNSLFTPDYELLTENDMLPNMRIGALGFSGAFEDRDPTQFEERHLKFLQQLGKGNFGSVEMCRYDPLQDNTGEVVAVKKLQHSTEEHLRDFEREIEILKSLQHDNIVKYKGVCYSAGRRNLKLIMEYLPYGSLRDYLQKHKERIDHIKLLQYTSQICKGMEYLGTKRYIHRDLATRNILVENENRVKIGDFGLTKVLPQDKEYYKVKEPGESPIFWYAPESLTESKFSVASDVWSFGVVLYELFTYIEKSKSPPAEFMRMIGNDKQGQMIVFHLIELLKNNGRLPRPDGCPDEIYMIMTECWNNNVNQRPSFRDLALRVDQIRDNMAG
# EXPERIMENTAL_DETAILS: HTRF kinase assay, JAK2
# Format: biochemical
# MEASUREMENT_CONTEXT: Table 5
Please go through the items and note down their pIC50.
Please treat pIC50 as minus the base-10 logarithm of the molar concentration.

Kindly note the recorded pIC50 for CN(C)C1CCN(c2ccc(Nc3ncc4ccn(-c5cccc(NS(=O)(=O)C(C)(C)C)c5)c4n3)cc2)CC1 [drawing 75] , which is 8.14

Kindly note the recorded pIC50 for CN1CCN(c2ccc(Nc3ncc4ccn(-c5cccc(NS(=O)(=O)C6CC6)c5)c4n3)cc2)CC1 [drawing 74] , which is 8.60

Kindly note the recorded pIC50 for CN(C)C1CCN(c2ccc(Nc3ncc4ccn(-c5cccc(NS(=O)(=O)C(C)(C)C)c5)c4n3)cc2F)CC1 [drawing 76] , which is 8.52

---

# TGT: BRD4-BD2 (Homo sapiens (Human), UniProt O60885)
# EXPERIMENTAL_DETAILS: AlphaLisa bromodomain binding assay, BRD4-BD2
# MEASUREMENT_CONTEXT: Table 6; read-out: BRD4(2) IC50
Please go through the items and note down their pIC50.
Please treat pIC50 as minus the base-10 logarithm of the molar concentration.

Kindly note the recorded pIC50 for Cc1cnc(Nc2ccc(N3CCN(C)CC3)cc2)nc1Nc1cccc(NS(=O)(=O)C(C)(C)C)c1 [drawing 245] , which is 7.14

Kindly note the recorded pIC50 for CC(C)(C)S(=O)(=O)Nc1cc(-n2ccc3cnc(Nc4ccc(N5CCNCC5)c(F)c4)nc32)ccc1F [drawing 428] , which is 7.19

Kindly note the recorded pIC50 for CN1CCC(Nc2nc(Nc3ccc4c(c3)N(S(=O)(=O)C(C)(C)C)CC4)c3ccsc3n2)CC1 [drawing 204] , which is 6.53

Kindly note the recorded pIC50 for CN1CCN(c2ccc(Nc3ncc4ccn(-c5cccc(NS(=O)(=O)C6CC6)c5)c4n3)cc2)CC1 [drawing 297] , which is 5.87

Kindly note the recorded pIC50 for CN1CCN(c2ccc(Nc3ncc4ccn(-c5cccc(NS(=O)(=O)C6CC6)c5)c4n3)cc2)CC1 [drawing 278] , which is 6.14

Kindly note the recorded pIC50 for CC(C)(C)S(=O)(=O)Nc1cc(-n2ccc3cnc(Nc4cc(F)c5c(c4)CC4CNCCN54)nc32)ccc1F (stereo not shown) [drawing 443] , which is 7.07

Kindly note the recorded pIC50 for CN(C)C1CCN(c2ccc(Nc3ncc4scc(-c5ccc(F)c(NS(=O)(=O)C(C)(C)C)c5)c4n3)cc2F)CC1 , which is 7.04

Kindly note the recorded pIC50 for CN1CCN(c2ccc(Nc3ncc4ccn(-c5cccc(NS(=O)(=O)C(C)(C)C)c5)c4n3)cc2C#N)CC1 , which is 6.31

Kindly note the recorded pIC50 for Cc1cnc(Nc2ccc(N3CCN(C)CC3)cc2)nc1Nc1cccc(NS(=O)(=O)C(C)(C)C)c1 [drawing 271] , which is 7.14

Kindly note the recorded pIC50 for CC(C)(C)S(=O)(=O)Nc1cccc(-n2ccc3cnc(Nc4ccc(C(=O)N5CCNCC5)c(F)c4)nc32)c1 [drawing 463] , which is 7.27

Kindly note the recorded pIC50 for CC(C)(C)S(=O)(=O)Nc1cccc(-n2ccc3cnc(Nc4ccc(C(=O)N5CCNCC5)c(F)c4)nc32)c1 [drawing 462] , which is 7.27

Kindly note the recorded pIC50 for CNCCNC(=O)Cc1ccc(Nc2ncc3ccn(-c4cccc(NS(=O)(=O)C(C)(C)C)c4)c3n2)cc1 , which is 7.17

Kindly note the recorded pIC50 for CNC1CCN(c2ccc(Nc3ncc4ccn(-c5ccc(F)c(NS(=O)(=O)C(C)(C)C)c5)c4n3)cc2F)CC1 [drawing 456] , which is 7.07

Kindly note the recorded pIC50 for Cc1cnc(Nc2ccc(N3CCN(C)CC3)cc2)nc1Nc1cccc(NS(=O)(=O)C(C)(C)C)c1 [drawing 205] , which is 7.89

Kindly note the recorded pIC50 for Cc1cnc(Nc2ccc(N3CCN(C)CC3)c(F)c2)nc1Nc1ccc2c(c1)N(S(=O)(=O)C(C)(C)C)CC2 [drawing 246] , which is 6.95

Kindly note the recorded pIC50 for CN(C)C1CCN(C(=O)c2ccc(Nc3ncc4ccn(-c5cccc(NS(=O)(=O)C(C)(C)C)c5)c4n3)cc2F)CC1 , which is 7.54

Kindly note the recorded pIC50 for COc1cc(Nc2ncc3ccn(-c4cccc(NS(=O)(=O)C(C)(C)C)c4)c3n2)ccc1N1CCN(C)CC1 , which is 6.89

Kindly note the recorded pIC50 for CC(C)(C)S(=O)(=O)Nc1cccc(-n2ccc3cnc(Nc4ccc(C(=O)NC5CCNCC5)c(F)c4)nc32)c1 , which is 7.00

Kindly note the recorded pIC50 for CC(C)(C)S(=O)(=O)Nc1cccc(-c2csc3cnc(Nc4ccc(N5CCNCC5)c(F)c4)nc23)c1 , which is 6.71

Kindly note the recorded pIC50 for O=S(=O)(Nc1cccc(-n2ccc3cnc(Nc4ccc(N5CCNCC5)cc4)nc32)c1)C1CC1 [drawing 296] , which is 6.24

Kindly note the recorded pIC50 for CC(C)(C)S(=O)(=O)Nc1cc(-n2ccc3cnc(Nc4cc(F)c5c(c4)CC4CNCCN54)nc32)ccc1F (stereo not shown) [drawing 465] , which is 6.92

Kindly note the recorded pIC50 for Cc1ccc(Nc2nc(Nc3ccc(N4CCN(C)CC4)cc3)nc3ccccc23)cc1NS(=O)(=O)C(C)(C)C , which is 5.95

Kindly note the recorded pIC50 for Cc1cnc(Nc2ccc(OCCN3CCCC3)cc2)nc1Nc1cccc(NS(=O)(=O)C(C)(C)C)c1 , which is 6.35

Kindly note the recorded pIC50 for Cc1cnc(Nc2ccc(C(=O)NC3CCN(C)CC3)c(F)c2)nc1Nc1ccc2c(c1)N(S(=O)(=O)C(C)(C)C)CC2 , which is 7.52

Kindly note the recorded pIC50 for COc1cc(Nc2nc(Nc3ccc(N4CCN(C)CC4)cc3)nc3ccccc23)ccc1Cl , which is 5.28

---

# TGT: BRD3-BD1 (Homo sapiens (Human), UniProt Q15059)
# Sequence (Q15059 34-140): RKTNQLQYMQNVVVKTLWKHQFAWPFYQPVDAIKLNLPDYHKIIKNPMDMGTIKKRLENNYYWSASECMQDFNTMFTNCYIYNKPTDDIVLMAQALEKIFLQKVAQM
# EXPERIMENTAL_DETAILS: AlphaLisa bromodomain binding assay, BRD3-BD1
# MEASUREMENT_CONTEXT: Table 6; read-out: BRD3(1) IC50
Recorded IC50 split into classes group 1 (below 100 nM), group 2 (100 nM to below 700 nM), group 3 (700 nM or more)

Q. Into which bin does this compound go? COc1cc(Nc2nc(Nc3ccc(N4CCN(C)CC4)cc3)nc3ccccc23)ccc1Cl
A. group 3

Q. Into which bin does this compound go? Cc1cnc(Nc2ccc(C(=O)NC3CCN(C)CC3)c(F)c2)nc1Nc1ccc2c(c1)N(S(=O)(=O)C(C)(C)C)CC2
A. group 1

Q. Into which bin does this compound go? CC(C)(C)S(=O)(=O)Nc1cccc(-n2ccc3cnc(Nc4ccc(C(=O)N5CCNCC5)c(F)c4)nc32)c1 [drawing 462]
A. group 2

Q. Into which bin does this compound go? CC(C)(C)S(=O)(=O)Nc1cccc(Nc2nc(NC3CCNCC3)nc3sccc23)c1 [drawing 203]
A. group 2

Q. Into which bin does this compound go? CN1CCN(c2ccc(Nc3ncc4ccn(-c5cccc(NS(=O)(=O)C(C)(C)C)c5)c4n3)cc2F)CC1
A. group 2

Q. Into which bin does this compound go? CN(C)C1CCN(c2ccc(Nc3ncc4ccn(-c5cccc(NS(=O)(=O)C(C)(C)C)c5)c4n3)cc2)CC1 [drawing 317]
A. group 2

Q. Into which bin does this compound go? CC(C)(C)S(=O)(=O)Nc1cc(-n2ccc3cnc(Nc4cc(F)c5c(c4)CC4CNCCN54)nc32)ccc1F (stereo not drawn) [drawing 443]
A. group 1

Q. Into which bin does this compound go? CN(C)C1CCN(c2ccc(Nc3ncc4ccn(-c5ccc(F)c(NS(=O)(=O)C(C)(C)C)c5)c4n3)cc2F)CC1 [drawing 366]
A. group 1

Q. Into which bin does this compound go? CN1CCN(c2ccc(Nc3nc4c(c(Nc5cccc(NS(=O)(=O)C(C)(C)C)c5)n3)COC4)cc2)CC1 [drawing 206]
A. group 3

Q. Into which bin does this compound go? CN(C)C1CCN(C(=O)c2ccc(Nc3ncc4ccn(-c5cccc(NS(=O)(=O)C(C)(C)C)c5)c4n3)cc2F)CC1
A. group 2

Q. Into which bin does this compound go? CN1CCN(c2ccc(Nc3ncc4ccn(-c5cccc(NS(=O)(=O)C(C)(C)C)c5)c4n3)cc2)CC1 [drawing 260]
A. group 2

Q. Into which bin does this compound go? CC(C)(C)S(=O)(=O)Nc1cccc(-n2ccc3cnc(Nc4ccc(N5CCNCC5)cc4)nc32)c1 [drawing 283]
A. group 2

Q. Into which bin does this compound go? CN1CCN(c2ccc(Nc3ncc4ccn(-c5cccc(NS(=O)(=O)C6CC6)c5)c4n3)cc2)CC1 [drawing 297]
A. group 3

Q. Into which bin does this compound go? Cc1ccc(Nc2nc(Nc3ccc(N4CCN(C)CC4)cc3)nc3ccccc23)cc1NS(=O)(=O)C(C)(C)C
A. group 3

---

Please go through the items and note down their pIC50.
# TGT: JAK2 (Homo sapiens (Human))
# EXPERIMENTAL_DETAILS: HTRF kinase assay, JAK2
# Type: biochemical
# MEASUREMENT_CONTEXT: Table 6
# From the text: A kinase assay with HTRF was used to observe JAK activity and calculate the IC50s of compounds disclosed herein. HTRF is an enzymatic assay used to determine the amount of phosphorylated peptide. FRET (Fluorescence Resonance Energy Transfer) is based on the transfer of energy between two fluorophores—a donor and an acceptor—when in close proximity. […] Equipment Required • 1. […] Microplate reader (Pherastar)] […]
Please treat pIC50 as minus the base-10 logarithm of the molar concentration.

Kindly note the recorded pIC50 for Cc1cnc(Nc2ccc(N3CCN(C)CC3)cc2)nc1Nc1cccc(NS(=O)(=O)C(C)(C)C)c1 [drawing 271] , which is 8.15

Kindly note the recorded pIC50 for CC(C)(C)S(=O)(=O)Nc1cccc(-n2ccc3cnc(Nc4ccc(N5CCNCC5)cc4)nc32)c1 [drawing 306] , which is 8.00

Kindly note the recorded pIC50 for CN1CCN(c2ccc(Nc3ncc4ccn(-c5cccc(NS(=O)(=O)c6ccccc6)c5)c4n3)cc2)CC1 [drawing 287] , which is 8.52

Kindly note the recorded pIC50 for CC(C)(C)S(=O)(=O)Nc1cccc(-n2ccc3cnc(Nc4ccc(N5CCN(S(C)(=O)=O)CC5)cc4)nc32)c1 , which is 7.40
